measurement-description: chemical genetic growth profiling, strain panel (AID 1159580);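 further: tested at 20 µM; growth read once vehicle control cultures reached saturation at 30 °C; 1 = growth at the plate median or of vehicle wells; lower values mean less growth of the strain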
stated-conditions: S. cerevisiae deletion strains, growth OD, locus YLR370C, strain arc18, hits give low values
The campaign covered roughly 5,500 compounds. About 2,000 (36%) were called active. Inconclusive results (about 18%) are left out. The list shows a part of the results.
Measured normalized growth by item
Response field accepts a number only; no unit should be typed.

compound: O=C1C=CC(=C(c2ccc(O)cc2)c2ccc(O)cc2)C=C1
normalized growth: 0.964

For the next question, use this compound.
Output normalized growth of O=C(O)C1(O)C[C@@H](O)C(O)[C@H](O)C1 (stereo partly specified)
0.992
